B1: library; a variant is named by its letters at N, in order (parent)
chain: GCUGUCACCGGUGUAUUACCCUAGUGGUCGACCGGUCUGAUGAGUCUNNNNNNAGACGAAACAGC

Variants of: B1
experimentDescription: FACS-Seq fitted mean relative fluorescence mCherry/BFP without ligand (log10 relative fluorescence); ligand: hypoxanthine (xanthine aptamer); higher = higher reporter protein expression
conditionParameters: HEK293T, ligand present: no
Grouping by measured FACS-Seq fitted mean (log10) is done with the following cut points: low (below 0.2), mid (0.2 to below 0.4), high (0.4 or more)

Previously resolved entries follow.
q: Category of `GUAUAU` , please.
a: low

q: Now this one: `CAGGGG`
a: low

q: Now this one: `AUAAAG`
a: high

***
q: Category of `UGUAGA` , please.
a: low

q: Now this one: `AAUAUA`
a: high

q: Now this one: `GAGCUG`
a: mid

q: Now this one: `UAAUGG`
a: mid

q: Now this one: `GUUGGG`
a: mid

q: Now this one: `UCACUG`
a: low

q: Now this one: `CAGACA`
a: high

q: Now this one: `GCUUGG`
a: low

q: Now this one: `AGUAAU`
a: high

q: Now this one: `AACACA`
a: low

q: Now this one: `AAGAUG`
a: low
